Test system: SK-MEL-2
PROTOCOL_SUMMARY: NCI tumour cell line growth inhibition, 48 h
Activity calls are given as the source filed them. No stated cut-off is given here; in the data, active = GI50 up to about 1.1 µM and inactive = higher.
MEASURED_PROPERTY: GI50

- COMPOUND: "CCN1c2nc3ccccc3nc2N(CC)c2nc3ccccc3nc21"
  REPORTED_VALUE: "> 100 µM (inactive)"
- COMPOUND: "CC[C@@H]1ON(C)[C@H]2CN(C)C(=O)[C@@H]12"
  REPORTED_VALUE: "> 100 µM (inactive)"
- COMPOUND: "CC1=C(C(=O)NCc2ccccc2)C(c2ccccc2O)C(C(=O)NCc2ccccc2)=C(C)N1"
  REPORTED_VALUE: "15.4 µM (inactive)"
- COMPOUND: "O=C(CC1(O)C(=O)Nc2c(Cl)cc(Cl)cc21)c1ccc(Br)cc1Br (stereo not drawn)"
  REPORTED_VALUE: "15.2 µM (inactive)"
- COMPOUND: "CCC1N2CCCCC2[C@@H]2c3[nH]c4ccccc4c3CCN12 (stereo partly drawn)"
  REPORTED_VALUE: "> 100 µM (inactive)"
- COMPOUND: "O=[N+]([O-])C(/C=N/Nc1ccccc1)/C=N/Nc1ccccc1"
  REPORTED_VALUE: "> 100 µM (inactive)"
- COMPOUND: "CC(=O)C1=C(C)N(c2ccc(C)cc2)C2(O)C3=C(C(=O)c4ccccc4C3=O)C(O)=CC12Cl (stereo not drawn)"
  REPORTED_VALUE: "8.53 µM (inactive)"
- COMPOUND: "COC(=O)C(CCCCNC(=O)CNC(=O)OCc1ccccc1)NC(=O)C(CCCCNC(=O)CNC(=O)OCc1ccccc1)NC(=O)OCc1ccccc1 (stereo not drawn)"
  REPORTED_VALUE: "19 µM (inactive)"
- COMPOUND: "COC(=O)c1ccccc1C1CN=NC12Cc1ccc(C)cc1C2=O (stereo not drawn)"
  REPORTED_VALUE: "28.5 µM (inactive)"
- COMPOUND: "CCc1cc(Cc2cc(CC)c(NC(=O)C(=O)CC(=O)c3sc(-c4cccnc4)nc3C)c(CC)c2)cc(CC)c1NC(=O)C(=O)CC(=O)c1sc(-c2cccnc2)nc1C"
  REPORTED_VALUE: "> 100 µM (inactive)"
- COMPOUND: "CC1(C)CC(=O)c2[nH]c3ccccc3c2CC(=O)NCCc2cn1cn2"
  REPORTED_VALUE: "> 100 µM (inactive)"
- COMPOUND: "CN1C2CCC1CC(CCNC(c1ccccc1)c1ccccc1)C2 (stereo not drawn)"
  REPORTED_VALUE: "16.7 µM (inactive)"
- COMPOUND: "O=C1Oc2ccccc2C1C/C(=N\\Nc1ccccc1)c1ccccc1O (stereo not drawn)"
  REPORTED_VALUE: "35.5 µM (inactive)"

* * *

The compounds listed here are annotated with their GI50.
Tested on: OVCAR-8
PROTOCOL_SUMMARY: NCI tumour cell line growth inhibition, 48 h
Calls of active or inactive are those of the source. Rule as the data show it: active = GI50 up to about 1.1 µM and inactive = higher.
MEASURED_PROPERTY: GI50

- COMPOUND: "COc1cc2c(cc1OC)c1c(OC)c(OC)cc3c1c1c2sc(=S)n1CC3"
  TARGET_OR_SYSTEM: "OVCAR-8"
  MEASURED_PROPERTY: "GI50"
  REPORTED_VALUE: "41.8 µM (inactive)"
- COMPOUND: "C=C1CC2CC[C@@]34C[C@H]5O[C@@H]6C(O[C@H]7CC[C@H](CC(=O)OC8[C@H](C)C9OC%10C[C@]%11(C[C@@H]%12O[C@]%13(C[C@H](C)[C@@H]%14O[C@H]([C@H](O)C[C@H](O)CO)C[C@@H]%14O%13)C[C@H](C)[C@@H]%12O%11)OC%10CC9O[C@H]8C[C@H]8O[C@H](CC[C@@H]1O2)C[C@@H](C)C8=C)O[C@H]7[C@@H]6O3)[C@@H]5O4 (stereo partly specified)"
  TARGET_OR_SYSTEM: "OVCAR-8"
  MEASURED_PROPERTY: "GI50"
  REPORTED_VALUE: "0.00222 µM (active)"
- COMPOUND: "O=S(=O)(c1ccccc1)n1c2ccc(Br)cc2c2nc3ccccc3nc21"
  TARGET_OR_SYSTEM: "OVCAR-8"
  MEASURED_PROPERTY: "GI50"
  REPORTED_VALUE: "> 100 µM (inactive)"
- COMPOUND: "O=C(CSc1nnc(Cc2ccccc2)o1)Nc1ccc(Cl)cc1"
  TARGET_OR_SYSTEM: "OVCAR-8"
  MEASURED_PROPERTY: "GI50"
  REPORTED_VALUE: "96.6 µM (inactive)"
- COMPOUND: "CC(C)(C)[Si](C)(C)O[C@@H](C(=O)OC1C=CCCC1)[C@@H](NC(=O)c1ccccc1)c1ccccc1 (stereo partly specified)"
  TARGET_OR_SYSTEM: "OVCAR-8"
  MEASURED_PROPERTY: "GI50"
  REPORTED_VALUE: "56.4 µM (inactive)"
- COMPOUND: "CCc1cc(Cc2cc(CC)c(NC(=O)C(=O)CC(=O)c3sc(-c4cccnc4)nc3C)c(CC)c2)cc(CC)c1NC(=O)C(=O)CC(=O)c1sc(-c2cccnc2)nc1C"
  TARGET_OR_SYSTEM: "OVCAR-8"
  MEASURED_PROPERTY: "GI50"
  REPORTED_VALUE: "> 100 µM (inactive)"
- COMPOUND: "N#Cc1nc(C#N)n(C(=O)c2ccccc2)c1NC(=O)c1ccccc1"
  TARGET_OR_SYSTEM: "OVCAR-8"
  MEASURED_PROPERTY: "GI50"
  REPORTED_VALUE: "> 100 µM (inactive)"
- COMPOUND: "Cc1cccc(/C=N/NC(=S)NC2CCCCC2)n1"
  TARGET_OR_SYSTEM: "OVCAR-8"
  MEASURED_PROPERTY: "GI50"
  REPORTED_VALUE: "19.4 µM (inactive)"
- COMPOUND: "C/C=C/[C@H]1O[C@@](OC)([C@@H](C)[C@H](O)[C@H](C)[C@H]2OC(=O)/C(OC)=C/C(C)=C/[C@@H](C)[C@@H](O)[C@@H](C)[C@@H](O)[C@H](C)C/C(C)=C/C=C/[C@@H]2OC)CC(OC2CC(O)C(OC(N)=O)C(C)O2)[C@@H]1C (stereo partly specified)"
  TARGET_OR_SYSTEM: "OVCAR-8"
  MEASURED_PROPERTY: "GI50"
  REPORTED_VALUE: "< 0.01 µM (active)"
- COMPOUND: "O=C(Nc1cccc(F)c1)c1cc2ccc(O)cc2o/c1=N\\c1cccc(F)c1"
  TARGET_OR_SYSTEM: "OVCAR-8"
  MEASURED_PROPERTY: "GI50"
  REPORTED_VALUE: "2.31 µM (inactive)"
- COMPOUND: "COc1c(Br)cc2ccccc2c1-c1c(OC)c(Br)cc2ccccc12"
  TARGET_OR_SYSTEM: "OVCAR-8"
  MEASURED_PROPERTY: "GI50"
  REPORTED_VALUE: "> 100 µM (inactive)"
